test system: THP-1; experiment: Cytotoxicity against human THP1 cells after 46 hrs by MTS assay; type: functional, cell-based; conditions: THP-1, 46 h
PROPERTY LABEL: IC50 (µM)
Give bare numbers, in µM.

Prompt line: Looking for the measured IC50 of COC(=O)/C=C/C(O)=C1\COCC(OC(C)=O)=C1C(=O)OC , can you help?
Response line: 37.4
